Ref: paper PMC11019538

Target: Cp149 capsid assembly (Hepatitis B virus genotype D subtype adw)
Construct: The N-terminal domain of Cp (Cp149) is sufficient for forming regular capsids; made in house; host or cells: E. coli BL21(DE3)
Sequence (P03147 1-149): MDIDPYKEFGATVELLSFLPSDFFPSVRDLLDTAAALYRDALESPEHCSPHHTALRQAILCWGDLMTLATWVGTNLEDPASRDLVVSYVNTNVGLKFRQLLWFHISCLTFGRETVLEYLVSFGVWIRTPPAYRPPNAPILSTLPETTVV
Assay: Transmission electron microscopy of assembled Cp149 products
Assay type: biochemical
Settings: 20 μM Cp149, 40 μM compound, 500 mM NaCl
API: label(entry) gives label 1 if the entry's % abnormal capsids, Trial 2 is strictly smaller than 40%; on equality or larger values it gives label 0.

Request: % abnormal capsids, Trial 2 strictly < 40% for this compound? NCCCC(=O)NCc1nc(-c2cccc(F)c2)c(-c2ccccn2)[nH]1 [GT-45]
Result: label 1

Request: State whether 40% exceeds % abnormal capsids, Trial 2 recorded for CCOC(=O)c1cc(-c2cc(C(=O)OCC)c3ccccc3n2)nc2ccccc12 [GT-33] .
Result: label 1

Request: State whether 40% exceeds % abnormal capsids, Trial 2 recorded for Cc1nc(-c2c(-c3ccccc3)ncn2Cc2cccc3[nH]ccc23)c[nH]1 [GT-40] .
Result: label 1

Request: Strictly below 40%: is that where % abnormal capsids, Trial 2 of O=C(OCc1ccc(-c2cnc3ccccc3n2)cc1)c1cccs1 [GT-32] sits?
Result: label 0

Request: Answer whether the compound Cc1ccc2[nH]c(CCNc3nccc(-c4ccccn4)n3)nc2c1C [GT-47] has % abnormal capsids, Trial 2 strictly less than 40%
Result: label 1

Request: Determine whether this compound shows % abnormal capsids, Trial 2 lower than 40% (ties excluded): O=C(NCc1ccc(-c2cccnc2)nc1)c1ccc2nccnc2c1 [GT-46]
Result: label 0

Request: hey, is % abnormal capsids, Trial 2 for CCn1ccnc1-c1c(-c2ccccc2)ncn1CCCc1cccnc1 [GT-39] lower than 40% or not?
Result: label 1

###

Target: Cp149 (Hepatitis B virus genotype D subtype adw, UniProt P03147)
Construct: The N-terminal domain of Cp (Cp149) is sufficient for forming regular capsids; made in house; host or cells: E. coli BL21(DE3)
Sequence (P03147 1-149): as above
Test: Tryptophan fluorescence titration
Type: binding
Conditions: KD, one site specific binding model, Table S7
Reported property: pKd
Value format note: pKd is -log10 of concentration (mol/L); just state the number.

Request: Given O=C(NCc1ccc(-c2cccnc2)nc1)c1ccc2nccnc2c1 [GT-46] , respond with its pKd.
Result: 3.58

###

Experiment: MTT cytotoxicity, CEM cells
Type: cell-based, human
Conditions: human, T lymphoblast CEM-CCRF (CEM) cells
Reported property: CC50 (µM)
Enter your answer as a number in µM; do not include the unit.

Request: Note CC50 for the molecule shown: Cc1nc(-c2c(-c3ccccc3)ncn2Cc2cccc3[nH]ccc23)c[nH]1
Result: 77

Request: Complete the entry with CC50 for O=C(OCc1ccc(-c2cnc3ccccc3n2)cc1)c1cccs1
Result: 52

Request: Provide only the value of recorded CC50 for CCn1ccnc1-c1c(-c2ccccc2)ncn1CCCc1cccnc1
Result: 16

Request: Provide only the value of recorded CC50 for O=C(NCc1ccc(-c2cccnc2)nc1)c1ccc2nccnc2c1
Result: 38

###

System: HBV DNA replication in HepAD38 cells
Experiment: HBV DNA replication inhibition assay in HepAD38 cells (7 days, PCR of supernatant DNA)
Format: cell-based, hepatitis B virus
Details: HepAD38 cells, trial 2; read-out: EC50, trial 2
What EC50 was measured for each of the following?

Request: Give EC50 for O=C(Cc1ccc(O)cc1)NCc1nc(-c2cccc(F)c2)c(-c2ccccn2)[nH]1
Result: > 10 µM

Request: State, in one line, measured EC50 of COc1ccc(-c2cc(C(=O)Oc3cccc(-c4cnc5ccccc5n4)c3)c3ccccc3n2)cc1
Result: > 10 µM

Request: Supply reported EC50 belonging to this compound: Oc1c(C(Nc2ccccc2)c2ccccc2)ccc2cccnc12 (stereo not shown)
Result: > 10 µM

Request: Respond only with EC50 recorded for Cc1nc2ccccc2nc1-c1sc2ncccc2c1O
Result: > 10 µM

Request: Check the records and state EC50 for OC(Cn1cnc(-c2ccccc2)c1-c1cc2ccccc2[nH]1)c1cccnc1 (stereo not shown)
Result: > 10 µM

Request: Retrieve EC50 measured for COc1cc(OC)c2cc(-c3nc4ccccc4[nH]3)c(-c3ccc(C)cc3)nc2c1 and print it.
Result: > 10 µM

Request: Dear colleague, please send me the reported EC50 for Cc1ccc(-c2nc(CNC(=O)C3CCOC3)[nH]c2-c2ccccn2)cc1 (stereo not shown) when you can.
Result: > 10 µM

Request: Determine from records and report EC50 for c1ccc(Cn2cc(-c3cccnc3)c(-c3nc(-c4ccccc4)c(-c4ccccc4)[nH]3)n2)cc1
Result: > 10 µM

Request: # return recorded EC50 for entry CCN(CC)CCCNc1cc(OC)c(Nc2ccccc2)c2cccnc12
Result: > 10 µM

Request: Fill in EC50 for record CC(=O)N1CCC(NCc2nc(-c3ccc(C)cc3)c(-c3ccccn3)[nH]2)CC1
Result: > 10 µM

Request: Specify reported EC50 for the compound shown: COc1ccc(F)c(Cn2cnc(-c3ccccc3)c2-c2c[nH]cn2)c1F
Result: > 10 µM

Request: Provide one value: measured EC50 of O=C(NCCN1CCOCC1)c1ccc2nc(-c3ccccc3)c(-c3ccccc3)nc2c1
Result: > 10 µM

Request: Note EC50 for the compound shown: CCN1CCN(C(=O)c2ccc(-c3nc4ccccc4nc3-c3ccccc3)cc2)CC1
Result: > 10 µM
